This document collects pIC50 values reported for Isocitrate lyase (Candida albicans).
Field pIC50 (float): negative decimal logarithm of the concentration in molar.

Before answering, review these 2 worked examples.
- Molecule: "Oc1ccc(C(c2ccc(O)cc2O)c2cc(Br)c(O)cc2O)cc1 (stereo not given)"
  Reported Result: 4.04
- Molecule: "O=[N+]([O-])c1cccc(C(c2cc(Br)c(O)cc2O)c2cc(Br)c(O)cc2O)c1"
  Reported Result: 4.57

Record request: pIC50 value, item CCCCCC(c1ccc(O)cc1O)c1cc(Br)c(O)cc1O (stereo not given)
4.33

Note, next up: `O=[N+]([O-])c1ccc(C(c2cc(Br)c(O)cc2O)c2cc(Br)c(O)cc2O)cc1`
4.68

Moving on to O=[N+]([O-])c1ccc(C(c2ccc(O)cc2O)c2cc(Br)c(O)cc2O)cc1 (stereo not given)
4.39
